Molecular target: T1, DNA polymerase IV (Dpo4) (Sulfolobus solfataricus, UniProt Q97W02 1-352)
T1 sequence: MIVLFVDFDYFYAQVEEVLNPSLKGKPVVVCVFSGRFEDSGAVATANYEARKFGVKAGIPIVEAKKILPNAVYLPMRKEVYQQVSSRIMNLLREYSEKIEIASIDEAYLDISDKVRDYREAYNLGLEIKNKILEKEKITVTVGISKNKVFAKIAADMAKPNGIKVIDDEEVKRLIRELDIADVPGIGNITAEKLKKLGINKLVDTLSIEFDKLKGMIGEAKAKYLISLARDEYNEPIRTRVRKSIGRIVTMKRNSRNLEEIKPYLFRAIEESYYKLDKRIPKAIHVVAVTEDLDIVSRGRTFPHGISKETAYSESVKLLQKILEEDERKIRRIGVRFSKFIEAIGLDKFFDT
Assay: EMSA
readout-label: Kd
Report the figure along with its unit, number first.

Q: Input 20/26-mer-dG1,8 (dsDNA, template G6 (from 5') is dG1,8 = 8-(deoxyguanosin-N2-yl)-1-aminopyrene; lesion is the templating base) DNA 1: AACGACGGCCAGTGAATTCG DNA 2: CCCGCGCGAATTCACTGGCCGTCGTT , output reported Kd.
Result: 9 nM
